tested on: CCRF-CEM leukemia; experiment: NCI-60 one-dose screen, 48 h (100 = growth as untreated, 0 = no growth, -100 = all killed); settings: 10 µM unless noted
Compounds without any hit were thinned out: in the full panel of roughly 83,000, 20% have a hit.
value-type: growth (%)
I only need the number, in %, no unit after it.

Use these answered entries as a reference point.
CCCCCc1ccc(S(=O)(=O)N(C(C)=O)c2cccc(-c3csc(N(CCN4CCN(C)CC4)C(C)=O)n3)c2)cc1 4.61
Oc1ccc(CSc2nnc(-c3ccc(Br)cc3)n2-c2ccccc2)c2cccnc12 22.9
COc1cc(/C=N/Nc2ccnc3cc(Cl)ccc23)cc(OC)c1O 9.72
COC(=O)Nc1ccc(-c2nc(-c3cccc(O)c3)c(-c3ccnc(Br)c3)[nH]2)cc1 22.8

Consider now this further molecule.
# growth lookup, item COc1ccc(S(=O)(=O)NCCCNc2nccc(-n3cnc4ccccc43)n2)cc1
91.4

###

tested on: BT-549 breast; assay: NCI-60 one-dose screen, 48 h (100 = growth as untreated, 0 = no growth, -100 = all killed); details: 10 µM unless noted
About 83,000 compounds went through this panel and 20% of them were active in at least one assay; those are over-represented in the sample as a whole.
value-type: growth (%)
I only need the number, in %, no unit after it.

compound	experimental-result
CC(=O)Nc1cccc(-n2cnc3cc(-c4ccc(O)cc4)ccc32)c1	49.2
O=C(NNc1nc2cc(F)ccc2n2cncc12)c1cnccn1	55
Cc1cc(=O)n2nc(-c3c[nH]c4ccccc34)sc2n1	108

# growth lookup, item CC(C)C(=O)Nc1ccc(-c2nc(-c3cccc(O)c3)c(-c3ccnc(Br)c3)[nH]2)cc1
60.5

Same thing, different compound: CN1CCN(c2ccc(NC(=O)Nc3ccc4c(ccn4-c4cccc(C(N)=O)n4)c3)cc2C(F)(F)F)CC1
89.9

Same thing, different compound: COc1ccc(-c2nnc(/N=C3/C(=O)Nc4ccc(Br)cc43)o2)cc1
103

Same thing, different compound: Cc1ccc(-c2cc3nc(C(Cl)Cl)nc(-c4ccccc4)n3n2)cc1
95.8

Same thing, different compound: O=C1Nc2ccc(Br)cc2/C1=N\c1nnc(-c2ccc(Cl)cc2)o1
63.1

Same thing, different compound: CCOC(=O)C1=C(C)Nc2nc3ccccc3n2C1c1ccccc1 (stereo not given)
101

Same thing, different compound: COc1ccc(NS(=O)(=O)c2ccc(-c3cnc(C4CC4)o3)cc2)cc1Cl
57.5

###

system: SK-MEL-28 melanoma; assay: NCI-60 one-dose screen, 48 h (100 = growth as untreated, 0 = no growth, -100 = all killed); conditions: 10 µM unless noted
About 83,000 compounds went through this panel and 20% of them were active in at least one assay; those are over-represented in the sample as a whole.
Criterion: growth strictly under 70%. Met: Criterion met. Not met: Criterion not met.

compound	assigned-label
CCc1ccc(NC(=O)N[C@@H](Cc2cccc(F)c2)C(=O)N[C@@H]2C(=O)N3CCC[C@H]3C(=O)N3CCCC[C@H]3C(=O)N[C@@H](CO)C(=O)N3C[C@H](C)C[C@H]3C(=O)O[C@H]2C)c(F)c1	Criterion met
O=C(c1ccc(O)cc1)[C@@H]1[C@@H]2CCCN2[C@@]2(C(=O)N(C(=O)c3ccc(F)cc3)c3ccccc32)[C@H]1c1ccc(F)cc1	Criterion not met
O=C1c2c(c3c4cc(Br)ccc4[nH]c3c3ccc4ccccc4c23)C(=O)N1CCN1CCNCC1	Criterion not met
O=c1cc(-c2ccccc2)nc2sc(-c3c[nH]c4ccc(F)cc34)nn12	Criterion met
COc1ccc(/C=N\NC(=O)c2ccc3nc(-c4ccc(Br)cc4)[nH]c3c2)cc1	Criterion met

Quick check: does CCOC(=O)C1=C(C)Nc2nc3ccccc3n2C1c1cccc(Br)c1 (configuration not stated) have growth under 70%?
Criterion not met

Same thing, different compound: O=C(NNc1nc2cc(F)c(F)cc2n2cccc12)c1ncccn1
Criterion met

Same thing, different compound: N#Cc1c(NC(=O)c2ccccc2C(F)(F)F)sc2c1CCC(=O)C2
Criterion met

Same thing, different compound: C#C[C@]1(O)CC[C@H]2[C@@H]3CC=C4c5sc(Nc6cc(Cl)ccn6)nc5CC[C@]4(C)[C@H]3CC[C@@]21C
Criterion met

Same thing, different compound: Cc1ccc(NC(=O)c2cccc(CN3CCN(C)CC3)c2)cc1Oc1ccc(-c2[nH]nc3ncnc(N)c23)cc1
Criterion not met

Same thing, different compound: COc1cc(/C=N/n2cnc3oc(-c4ccccc4)cc3c2=N)cc(CN2CCN(C)CC2)c1O
Criterion not met

Same thing, different compound: O=C(CSc1ccc(-c2nc3ccccc3[nH]2)cn1)N1CCN(c2ccccc2F)CC1
Criterion not met

Same thing, different compound: CN(c1ccc(Cl)cc1)S(=O)(=O)c1ccc(-c2cnc(C3CC3)o2)cc1
Criterion met

Same thing, different compound: Nc1n[nH]c2cccc(C#Cc3cccc(NC(=O)c4cccc(OC(F)(F)F)c4)c3)c12
Criterion met

Same thing, different compound: COc1ccc(CN2C(=O)/C(=C/c3nc(CO)cs3)SC2=S)cc1
Criterion not met

Same thing, different compound: C=C(C)[C@@H]1CC[C@]2(C(=O)ON)CC[C@]3(C)[C@H](CC[C@@H]4[C@@]5(C)C/C(=C/c6ccc(Br)cc6)C(=O)C(C)(C)[C@@H]5CC[C@]43C)[C@@H]12
Criterion not met

###

tested on: COLO 205 colon; assay: NCI-60 one-dose screen, 48 h; settings: 10 µM unless noted
The panel holds about 83,000 compounds, 20% with a hit somewhere; the sample as a whole holds those more often. Calls of active or inactive are those of the source. The calls were made as follows: active = growth percent below 10; inactive = the rest.
Choose one outcome from this list and give only that: true (1) (active), false (0) (inactive)

Below are worked cases with known answers.
compound	assigned-label
CC(=O)NC(C)(C)C(=O)N[C@@H](C)C(=O)NC(C)(C)C(=O)N[C@@H](C)C(=O)NC(C)(C)C(=O)N[C@@H](C)C(=O)N[C@@H](CCC(N)=O)C(=O)NC(C)(C)C(=O)N[C@H](C(=O)NC(C)(C)C(=O)NCC(=O)N[C@@H](CC(C)C)C(=O)NC(C)(C)C(=O)N1CCC[C@H]1C(=O)N[C@H](C(=O)NC(C)(C)C(=O)NC(C)(C)C(=O)N[C@@H](CCC(N)=O)C(=O)N[C@@H](CCC(N)=O)C(=O)N[C@H](CO)CC1CCCCC1)C(C)C)C(C)C	true (1)
COc1cc(-c2noc(C[C@@H](NC(=O)OCc3ccccc3)C(C)C)n2)cc(OC)c1OC	false (0)
CS(=O)(=O)c1ccc2c(c1)c1c(n2S(=O)(=O)c2ccc(Cl)cc2)CCCC1	true (1)
C(=C(\C1=NCCN1)n1cnc2ccccc21)/c1ccc2ccccc2c1	false (0)
COc1ccc(-c2nc3cc(Cl)c(Cl)cc3n2CC(=O)N=Nc2c(O)[nH]c3ccc(Br)cc23)cc1	true (1)
O=C(CSc1nnc(-c2cccs2)n1-c1ccccc1)Nc1ccc(F)cc1	false (0)
C/C(=C(/c1ccc(O)cc1)c1ccc(OCCN2CCCC2)cc1)c1ccc(Cl)cc1	true (1)
Oc1ccccc1-c1nnc(SCc2ccc(O)c3ncccc23)o1	false (0)
C#C[C@]1(O)CC[C@H]2[C@@H]3CC=C4c5sc(C6CC6)nc5CC[C@]4(C)[C@H]3CC[C@@]21C	false (0)
O=C(c1ccc(O)cc1)[C@@H]1[C@@H]2CCCN2[C@@]2(C(=O)N(C(=O)c3ccc(F)cc3)c3ccccc32)[C@H]1c1ccc(F)cc1	false (0)

Recorded test call requested for C#CCOc1ccc(C(Nc2ccc(Cl)cc2)c2nnnn2C2CCCCC2)cc1 (stereo not drawn)
false (0)

Same thing, different compound: O=C1c2c(c3c4ccc(Br)cc4oc3c3[nH]c4ccccc4c23)C(=O)N1CCO
false (0)

Same thing, different compound: C/C(=C(/c1ccc(O)cc1)c1ccc(OCCN(C)C)cc1)c1ccc(Cl)cc1
true (1)

Same thing, different compound: O=[N+]([O-])c1ccc(-c2nnc(SCc3ccc(O)c4ncccc34)o2)cc1
false (0)

Same thing, different compound: O=C(N/N=C\c1ccc(Cl)cc1)c1ccc2nc(-c3ccc(Br)cc3)[nH]c2c1
true (1)

###

tested on: OVCAR-4 ovarian; test: NCI-60 one-dose screen, 48 h (100 = growth as untreated, 0 = no growth, -100 = all killed); settings: 10 µM unless noted
This is part of a sample that, as a whole, favours compounds with a hit. Of some 83,000 tested, about 20% had one in any assay.
value-type: growth (%)
I only need the number, in %, no unit after it.

Use these answered entries as a reference point.
compound	growth [%]
O=C(C[n+]1ccnc2ccccc21)c1ccc(O)c(O)c1	46.6
IP(CCCSc1n(Cc2ccc3ccccc3c2)c(-c2ccccc2)c(-c2ccccc2)[n+]1Cc1ccc2ccccc2c1)(c1ccccc1)(c1ccccc1)c1ccccc1	23.2
O=C(Nc1cccc(-c2nc(-c3ccc(NC(=O)c4cccs4)cc3Cl)no2)c1)Nc1ccc(NC(=O)C2CC2)c(C(F)(F)F)c1	-81.3
Cc1cc(O)c2c(c1)C(=O)C(c1c(C)cc3c(c1O)C(=O)C=CC3=O)=CC2=O	86.3
NCCN1CCN(c2nc(-c3ccccc3)nc3nc(-c4ccccc4)oc23)CC1	-59.7
COc1cc([C@H]2OC[C@H]3[C@@H]2CO[C@@H]3c2ccc(O)c(OC)c2)ccc1O	96.6
COc1cc(CNC(=O)/C=C/c2ccccc2)ccc1OCC(=O)NO	108
COc1ccc2c(ccn2C(=O)N2c3ccccc3Sc3ccccc32)c1	66.5

Consider now this further compound.
# growth lookup, item CS(=O)c1nccc(-c2c(-c3ccc(F)c(OCc4ccc(F)cc4)c3)nc3sccn23)n1 (centres undefined)
101
